Target: Human GLP-1 receptor (Homo sapiens)
Construct: The full-length cDNA was cloned in pcDNA3.1(+); expressed in transfected cells
Assay: In vitro Human GLP-1 R agonist activity (cyclic AMP determination) in CHO/human GLP1R cells
Assay type: cell-based
Conditions: 10 nM test compound
Procedure: The novel peptidomimetics were screened for Human GLP-1 receptor (HGLP-1 R) agonist activity (in vitro), using the cAMP cell-based assay, in stably transfected CHO/human GLP1R cells. […] The trypsin was inactivated using Ham's F12 medium containing 10% NBCS and the cells were suspended in 2 ml of complete medium. […] Data is calculated as percent of control (Vehicle: water) and expressed as Mean±SD.
Measured Human GLP-1 R activity (cAMP release), % activity with respect to control, listed per entry for reference.
readoutLabel: Human GLP-1 R activity (cAMP release), % activity with respect to control (%)

>  <compound>
CCc1cc(OC)ccc1-c1ccc(CC(C(=O)N(C)C(CCCc2ccccc2F)C(N)=O)N(C)C(=O)[C@H](CC(=O)O)NC(=O)[C@H](CO)NC(=O)[C@@H](NC(=O)C(C)(Cc2ccccc2F)NC(=O)[C@@H](NC(=O)CNC(=O)C(CCC#N)NC(=O)C(C)(C)NC(=O)[C@@H](N)Cc2c[nH]cn2)[C@H](C)O)[C@H](C)O)cc1 (single isomer, unassigned)

>  <system>
Human GLP-1 receptor (Homo sapiens)

>  <measured>
89

$$$$
>  <compound>
CCc1cc(OC)ccc1-c1ccc(CC(NC(=O)[C@H](CC(=O)O)NC(=O)[C@H](CO)NC(=O)[C@@H](NC(=O)C(C)(Cc2ccccc2F)NC(=O)[C@@H](NC(=O)CNC(=O)C(CCC#N)NC(=O)C(C)(C)NC(=O)[C@@H](N)Cc2c[nH]cn2)[C@H](C)O)[C@@H](C)O)C(=O)NC(CCCc2ccccc2F)C(N)=O)cc1 (single isomer, unassigned)

>  <system>
Human GLP-1 receptor (Homo sapiens)

>  <measured>
81

$$$$
>  <compound>
CCc1cc(OC)ccc1-c1ccc(CC(NC(=O)[C@H](CC(=O)O)NC(=O)[C@H](CO)NC(=O)[C@@H](NC(=O)C(C)(Cc2ccccc2F)NC(=O)[C@@H](NC(=O)CNC(=O)[C@H](CC(C(F)(F)F)C(F)(F)F)NC(=O)C(C)(C)NC(=O)[C@@H](N)Cc2c[nH]cn2)[C@H](C)O)[C@H](C)O)C(=O)NC(CCCc2ccccc2)C(N)=O)cc1 (single isomer, unassigned)

>  <system>
Human GLP-1 receptor (Homo sapiens)

>  <measured>
99

$$$$
>  <compound>
CCc1cc(OC)ccc1-c1ccc(CC(NC(=O)[C@H](CC(=O)O)NC(=O)[C@H](CO)NC(=O)[C@@H](NC(=O)[C@H](Cc2ccccc2)NC(=O)[C@@H](NC(=O)CNC(=O)C(CCC#N)NC(=O)C(C)(C)NC(=O)[C@@H](N)Cc2c[nH]cn2)[C@@H](C)O)[C@@H](C)O)C(=O)NC(CCCc2ccc(Cl)cc2C)C(N)=O)cc1 (single isomer, unassigned)

>  <system>
Human GLP-1 receptor (Homo sapiens)

>  <measured>
80

$$$$

###

test system: C57BL/6J mice (mild hyperglycemic); experiment: In vivo glucose reduction, acute single dose 120-min time-course, i.p. route; set-up: species or system mouse; unit not given here; details: male C57BL/6J mice, 30 nM/kg i.p., 120 min

>  <molecule>
CCc1cc(OC)ccc1-c1ccc(CC(C(=O)N(C)C(CCCc2ccccc2)C(N)=O)N(C)C(=O)[C@H](CC(=O)O)N(C)C(=O)[C@H](CO)NC(=O)[C@@H](NC(=O)C(C)(Cc2ccccc2F)NC(=O)[C@@H](NC(=O)CNC(=O)C(CCC#N)NC(=O)C(C)(C)NC(=O)[C@@H](N)Cc2c[nH]cn2)[C@H](C)O)[C@H](C)O)cc1 (single isomer, unassigned) [Seq. ID. 154]

>  <blood glucose levels>
117

$$$$
>  <molecule>
CCc1cc(OC)ccc1-c1ccc(CC(C(=O)N(C)C(CCCc2ccccc2F)C(N)=O)N(C)C(=O)[C@H](CC(=O)O)N(C)C(=O)[C@H](CO)NC(=O)[C@@H](NC(=O)C(C)(Cc2ccccc2F)NC(=O)[C@@H](NC(=O)CNC(=O)C(CCC#N)NC(=O)C(C)(C)NC(=O)[C@@H](N)Cc2c[nH]cn2)[C@H](C)O)[C@H](C)O)cc1 (single isomer, unassigned) [Seq. ID. 156]

>  <blood glucose levels>
118

$$$$

###

test system: RIN5F (Rat Insulinoma) cells; assay: In vitro glucose-dependent insulin secretion (RIN5F cell assay screening protocol); type: cell-based; settings: 10 nM test compd., 16.7 mM glucose load
readoutLabel: Insulin secretion (pg/µg/h)

>  <compound>
CCc1cc(OC)ccc1-c1ccc(CC(NC(=O)[C@H](CC(=O)O)NC(=O)[C@H](CO)NC(=O)[C@@H](NC(=O)[C@H](Cc2ccccc2)NC(=O)[C@@H](NC(=O)CNC(=O)C(CCC#N)NC(=O)C(C)(C)NC(=O)[C@@H](N)Cc2c[nH]cn2)[C@@H](C)O)[C@@H](C)O)C(=O)NC(CCCc2ccccc2)C(N)=O)cc1 (single isomer, unassigned)

>  <readoutLabel>
Insulin secretion

>  <measured>
36.2

$$$$
>  <compound>
CCc1cc(OC)ccc1-c1ccc(CC(NC(=O)[C@H](CC(=O)O)NC(=O)[C@H](CO)NC(=O)[C@@H](NC(=O)C(C)(Cc2ccccc2F)NC(=O)[C@@H](NC(=O)CNC(=O)[C@H](CC(C(F)(F)F)C(F)(F)F)NC(=O)C(C)(C)NC(=O)[C@@H](N)Cc2c[nH]cn2)[C@@H](C)O)[C@@H](C)O)C(=O)NC(CCCc2cc(C)cc(C)c2)C(N)=O)cc1 (single isomer, unassigned)

>  <readoutLabel>
Insulin secretion

>  <measured>
29.7

$$$$
>  <compound>
CCc1cc(OC)ccc1-c1ccc(CC(NC(=O)[C@H](CC(=O)O)NC(=O)[C@H](CO)NC(=O)[C@@H](NC(=O)C(C)(Cc2ccccc2F)NC(=O)[C@@H](NC(=O)CNC(=O)C(CCC#N)NC(=O)C(C)(C)NC(=O)[C@@H](N)Cc2c[nH]cn2)[C@H](C)O)[C@H](C)O)C(=O)N(C)C(CCCc2ccccc2)C(N)=O)cc1 (single isomer, unassigned)

>  <readoutLabel>
Insulin secretion

>  <measured>
37.0

$$$$

###

Measured Human GLP-1 R activity (cAMP release), % activity with respect to control, listed per entry for reference.
target: Human GLP-1 receptor (Homo sapiens); construct: The full-length cDNA was cloned in pcDNA3.1(+); expressed in transfected cells; experiment: In vitro Human GLP-1 R agonist activity (cyclic AMP determination) in CHO/human GLP1R cells; format: cell-based; conditions: 10 nM test compound
readoutLabel: Human GLP-1 R activity (cAMP release), % activity with respect to control (%)

>  <compound>
CCc1cc(OC)ccc1-c1ccc(CC(CNC(CCCc2ccccc2)C(N)=O)NC(=O)[C@H](CC(=O)O)NC(=O)[C@H](CO)NC(=O)[C@@H](NC(=O)C(C)(Cc2ccccc2F)NC(=O)[C@@H](NC(=O)CNC(=O)C(CCC#N)NC(=O)C(C)(C)NC(=O)[C@@H](N)Cc2c[nH]cn2)[C@H](C)O)[C@H](C)O)cc1 (single isomer, unassigned)

>  <uom>
%

>  <measured>
82

$$$$
>  <compound>
CCc1cc(OC)ccc1-c1ccc(CC(NC(=O)[C@H](CC(=O)O)NC(=O)[C@H](CO)NC(=O)[C@@H](NC(=O)[C@H](Cc2ccccc2)NC(=O)[C@@H](NC(=O)CNC(=O)C(CCC#N)NC(=O)C(C)(C)NC(=O)[C@@H](N)Cc2c[nH]cn2)[C@@H](C)O)[C@@H](C)O)C(=O)NC(CCCc2ccccc2)C(N)=O)cc1 (single isomer, unassigned)

>  <uom>
%

>  <measured>
99

$$$$

###

target: Human GLP-1 receptor (Homo sapiens, UniProt P43220); construct: The full-length cDNA was cloned in pcDNA3.1(+); expressed in transfected cells; experiment: In vitro Human GLP-1 R agonist activity (cyclic AMP determination) in CHO/human GLP1R cells; type: cell-based; conditions: 100 nM test compound
Sequence (P43220 24-463): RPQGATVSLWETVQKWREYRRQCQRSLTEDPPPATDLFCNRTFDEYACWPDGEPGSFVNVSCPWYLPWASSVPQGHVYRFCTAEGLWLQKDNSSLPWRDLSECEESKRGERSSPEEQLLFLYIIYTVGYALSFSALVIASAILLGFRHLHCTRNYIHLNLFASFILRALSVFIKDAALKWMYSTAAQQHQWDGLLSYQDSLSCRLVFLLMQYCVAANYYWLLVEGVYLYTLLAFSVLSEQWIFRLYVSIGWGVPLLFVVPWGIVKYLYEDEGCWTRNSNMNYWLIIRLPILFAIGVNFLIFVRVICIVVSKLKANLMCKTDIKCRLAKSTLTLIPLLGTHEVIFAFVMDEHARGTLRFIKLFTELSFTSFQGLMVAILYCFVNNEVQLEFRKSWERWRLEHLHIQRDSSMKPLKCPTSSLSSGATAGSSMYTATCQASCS
readoutLabel: Human GLP-1 R activity (cAMP release), % activity with respect to control (%)

>  <compound>
CCc1cc(OC)ccc1-c1ccc(CC(C(=O)N(C)C(CCCc2ccccc2)C(N)=O)N(C)C(=O)[C@H](CC(=O)O)N(C)C(=O)[C@H](CO)NC(=O)[C@@H](NC(=O)C(C)(Cc2ccccc2F)NC(=O)[C@@H](NC(=O)CNC(=O)C(CCC#N)NC(=O)C(C)(C)NC(=O)[C@@H](N)Cc2c[nH]cn2)[C@H](C)O)[C@H](C)O)cc1 (single isomer, unassigned) [compound 154]

>  <system>
Human GLP-1 receptor (Homo sapiens, UniProt P43220)

>  <measured>
98

$$$$
>  <compound>
CCc1cc(OC)ccc1-c1ccc(CC(CNC(CCCc2ccccc2F)C(N)=O)NC[C@H](CC(=O)O)NC(=O)[C@H](CO)NC(=O)[C@@H](NC(=O)C(C)(Cc2ccccc2F)NC(=O)[C@@H](NC(=O)CNC(=O)[C@H](CCC(N)=O)NC(=O)C(C)(C)NC(=O)[C@H](Cc2c[nH]cn2)NC(=O)OC)[C@@H](C)O)[C@@H](C)O)cc1 (single isomer, unassigned) [compound 196]

>  <system>
Human GLP-1 receptor (Homo sapiens, UniProt P43220)

>  <measured>
89

$$$$
>  <compound>
CCc1cc(OC)ccc1-c1ccc(CC(NC(=O)[C@H](CC(=O)O)NC(=O)[C@H](CO)NC(=O)[C@@H](NC(=O)[C@H](Cc2ccccc2)NC(=O)[C@@H](NC(=O)CNC(=O)C(CCC#N)NC(=O)C(C)(C)NC(=O)[C@@H](N)Cc2c[nH]cn2)[C@@H](C)O)[C@@H](C)O)C(=O)NC(CCCc2ccc(OC)cc2Cl)C(N)=O)cc1 (single isomer, unassigned) [compound 84]

>  <system>
Human GLP-1 receptor (Homo sapiens, UniProt P43220)

>  <measured>
85

$$$$
>  <compound>
CCc1cc(OC)ccc1-c1ccc(CC(NC(=O)[C@H](CC(=O)O)NC(=O)[C@H](CO)NC(=O)[C@@H](NC(=O)C(C)(Cc2ccccc2F)NC(=O)[C@@H](NC(=O)CNC(=O)C(CCC#N)NC(=O)C(C)(C)NC(=O)[C@H](Cc2c[nH]cn2)NC(C)=O)[C@@H](C)O)[C@@H](C)O)C(=O)NC(CCCc2ccccc2)C(N)=O)cc1 (single isomer, unassigned) [compound 205]

>  <system>
Human GLP-1 receptor (Homo sapiens, UniProt P43220)

>  <measured>
99

$$$$
>  <compound>
CCc1cc(OC)ccc1-c1ccc(CC(NC(=O)[C@H](CC(=O)O)NC(=O)[C@H](CO)NC(=O)[C@@H](NC(=O)C(C)(Cc2ccccc2F)NC(=O)[C@@H](NC(=O)CNC(=O)C(CCC#N)NC(=O)C(C)(C)NC(=O)[C@H](Cc2c[nH]cn2)NC(C)=O)[C@@H](C)O)[C@@H](C)O)C(=O)NC(CCCc2ccccc2F)C(N)=O)cc1 (single isomer, unassigned) [compound 207]

>  <system>
Human GLP-1 receptor (Homo sapiens, UniProt P43220)

>  <measured>
89

$$$$
>  <compound>
CCc1cc(OC)ccc1-c1ccc(CC(NC(=O)[C@H](CC(=O)O)NC(=O)[C@H](CO)NC(=O)[C@@H](NC(=O)[C@H](Cc2ccccc2)NC(=O)[C@@H](NC(=O)CNC(=O)C(CCC#N)NC(=O)C(C)(C)NC(=O)[C@@H](N)Cc2c[nH]cn2)[C@@H](C)O)[C@@H](C)O)C(=O)NC(CCCc2ccccc2F)C(N)=O)cc1 (single isomer, unassigned) [compound 77]

>  <system>
Human GLP-1 receptor (Homo sapiens, UniProt P43220)

>  <measured>
87

$$$$
